- TEST SYSTEM: Enoyl-acyl-carrier protein reductase (Plasmodium falciparum)
- Sequence (Q965D5 whole entry): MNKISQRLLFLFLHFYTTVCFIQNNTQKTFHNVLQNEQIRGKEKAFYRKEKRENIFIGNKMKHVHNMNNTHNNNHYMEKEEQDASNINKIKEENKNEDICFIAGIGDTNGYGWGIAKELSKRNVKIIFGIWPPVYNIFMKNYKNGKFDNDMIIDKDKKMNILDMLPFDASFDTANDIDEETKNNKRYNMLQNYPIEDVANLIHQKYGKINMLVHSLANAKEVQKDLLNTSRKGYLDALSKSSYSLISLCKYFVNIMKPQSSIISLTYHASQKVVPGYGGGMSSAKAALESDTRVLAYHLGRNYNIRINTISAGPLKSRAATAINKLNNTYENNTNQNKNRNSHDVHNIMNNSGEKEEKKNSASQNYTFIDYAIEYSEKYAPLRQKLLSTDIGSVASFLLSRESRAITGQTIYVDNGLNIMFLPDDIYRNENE
Compiled pIC50 measurements on Enoyl-acyl-carrier protein reductase (Plasmodium falciparum) taken from the literature.
Friendly reminder that pIC50 comes from taking -log10 of the concentration in mol/L.

Sample answers from the record:
CN(Cc1ccc(Cl)cc1)C(C)(C)c1cc(Cl)ccc1Oc1ccc(Cl)cc1O; 4.57
Nc1ccccc1Oc1ccc(Cl)cc1O; 5.15
Oc1cc(Cc2cccnc2)ccc1Oc1ccc(Cl)cc1Cl; 6.08
Oc1cc(CC2CCCCC2)ccc1Oc1ccc(Cl)cc1Cl; 6.28
Cc1ccc(-c2nn(-c3nccc(C(F)(F)F)n3)cc2C=O)cc1; 4.52

Prompt: I have this molecule here, `Oc1cc(Cl)ccc1Oc1ccc(Cl)cc1CN1CCN(Cc2ccccc2)CC1` , and I need its recorded pIC50.
Response: 4.96

Prompt: I have this molecule here, `Oc1cc(-c2cccnc2)ccc1Oc1ccc(Cl)cc1Cl` , and I need its recorded pIC50.
Response: 4.48

Prompt: I have this molecule here, `Oc1cc(Cl)ccc1Oc1ccc(Cl)cc1CNCc1ccc(Cl)cc1` , and I need its recorded pIC50.
Response: 5.14

Prompt: I have this molecule here, `O=S(=O)(NCc1cc(Cl)ccc1Oc1ccc(Cl)cc1O)c1ccccc1` , and I need its recorded pIC50.
Response: 4.82
